Source listed as patent EP1246824B1.

- target of assay: UniProtKB P43235
- Sequence (P43235 115-329): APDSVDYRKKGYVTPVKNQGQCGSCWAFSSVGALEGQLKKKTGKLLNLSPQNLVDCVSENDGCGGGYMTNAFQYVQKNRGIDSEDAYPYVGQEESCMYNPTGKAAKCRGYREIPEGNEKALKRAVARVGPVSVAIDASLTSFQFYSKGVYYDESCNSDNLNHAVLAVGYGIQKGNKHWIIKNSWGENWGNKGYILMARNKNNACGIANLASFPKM
- assay overview: Inhibition of Cathepsine K (fluorogenic substrate Z-Val-arg-AMC)
- Format: biochemical
- experimental setup: substrate Z-Val-arg-AMC 20 µM, enzyme 5 ng/ml, pH 5.5, 2 h at room temperature; concentration range 50 to 0.5 µM; read-out: IC50 µM Cathepsin K
measure name: IC50

{"molecule": "C=CCOC(=O)CC[C@H](NC(=O)[C@@H]1CCCN2C(=O)CC[C@H](NS(C)(=O)=O)C(=O)N12)C(=O)COC(=O)c1c(Cl)cccc1Cl", "measure name": "IC50", "observed result": "6 µM"}
{"molecule": "C=CCOC(=O)CC[C@H](NC(=O)[C@@H]1CCCN2C(=O)CC[C@H](NC(=O)NC3CCCCC3)C(=O)N12)C(=O)COC(=O)c1c(Cl)cccc1Cl", "measure name": "IC50", "observed result": "18 µM"}
{"molecule": "C=CCOC(=O)CC[C@H](NC(=O)[C@@H]1CCCN2C(=O)CC[C@H](NC(=O)NCCc3cccs3)C(=O)N12)C(=O)COC(=O)c1c(Cl)cccc1Cl", "measure name": "IC50", "observed result": "9 µM"}

Notebook: CC(C)C[C@H](NC(=O)[C@@H]1CCCN2C(=O)CC[C@H](NS(=O)(=O)c3ccc(C(F)(F)F)cc3)C(=O)N12)C(=O)C=[N+]=[N-] , IC50 read as 12 µM
